# IC50 measurements, system: xanthine oxidase (Bos taurus, UniProt P80457)
# Sequence (P80457 whole entry): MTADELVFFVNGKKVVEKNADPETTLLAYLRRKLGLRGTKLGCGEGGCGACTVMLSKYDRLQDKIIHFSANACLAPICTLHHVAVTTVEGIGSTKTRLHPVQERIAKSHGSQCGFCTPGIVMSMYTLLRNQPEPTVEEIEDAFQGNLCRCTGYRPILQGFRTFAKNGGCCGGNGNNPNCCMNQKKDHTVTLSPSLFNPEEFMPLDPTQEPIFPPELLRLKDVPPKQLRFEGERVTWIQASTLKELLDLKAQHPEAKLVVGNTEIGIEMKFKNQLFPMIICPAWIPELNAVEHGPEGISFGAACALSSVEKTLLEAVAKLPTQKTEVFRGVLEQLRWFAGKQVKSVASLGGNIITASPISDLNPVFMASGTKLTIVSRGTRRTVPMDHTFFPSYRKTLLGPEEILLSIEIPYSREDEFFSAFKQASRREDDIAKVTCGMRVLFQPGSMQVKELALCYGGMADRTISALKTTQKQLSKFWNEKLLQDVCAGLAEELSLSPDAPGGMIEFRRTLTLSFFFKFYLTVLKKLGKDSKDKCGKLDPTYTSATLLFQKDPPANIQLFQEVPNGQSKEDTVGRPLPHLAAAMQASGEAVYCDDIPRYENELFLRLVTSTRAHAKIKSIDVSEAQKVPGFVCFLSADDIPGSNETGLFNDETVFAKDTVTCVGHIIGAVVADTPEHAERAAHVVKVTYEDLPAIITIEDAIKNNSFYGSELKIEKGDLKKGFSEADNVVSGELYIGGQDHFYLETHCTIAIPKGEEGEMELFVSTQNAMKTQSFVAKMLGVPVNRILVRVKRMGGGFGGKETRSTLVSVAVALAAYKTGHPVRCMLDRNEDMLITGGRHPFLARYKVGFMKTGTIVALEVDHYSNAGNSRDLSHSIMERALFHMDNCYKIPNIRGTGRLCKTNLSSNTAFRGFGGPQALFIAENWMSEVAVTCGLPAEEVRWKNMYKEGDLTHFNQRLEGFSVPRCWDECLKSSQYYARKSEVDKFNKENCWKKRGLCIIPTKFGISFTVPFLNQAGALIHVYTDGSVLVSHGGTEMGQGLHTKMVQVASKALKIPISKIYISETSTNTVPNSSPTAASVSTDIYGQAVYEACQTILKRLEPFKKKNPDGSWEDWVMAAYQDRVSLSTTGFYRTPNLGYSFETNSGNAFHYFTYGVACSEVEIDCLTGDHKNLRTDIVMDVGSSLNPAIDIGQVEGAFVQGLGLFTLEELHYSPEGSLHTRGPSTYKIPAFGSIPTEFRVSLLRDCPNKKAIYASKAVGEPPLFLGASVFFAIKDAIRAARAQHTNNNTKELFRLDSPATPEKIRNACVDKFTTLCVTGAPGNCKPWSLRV
EXPERIMENTAL READOUT: IC50

>  <MOLECULE>
O=Cc1cc(O)c(O)cc1[N+](=O)[O-] [DH6NB, 3,4-Dihydroxy-6-nitrobenzaldehyde]

>  <STUDY TARGET>
xanthine oxidase (Bos taurus, UniProt P80457)

>  <EXPERIMENTAL READOUT>
IC50

>  <RECORDED VALUE>
96 µM

$$$$
>  <MOLECULE>
O=Cc1cc(O)c(O)c([N+](=O)[O-])c1 [DHNB, 3,4-Dihydroxy-5-nitrobenzaldehyde]

>  <STUDY TARGET>
xanthine oxidase (Bos taurus, UniProt P80457);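 note: xanthine oxidase activity read as the initial rate of uric acid production, with water serving as the negative control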

>  <EXPERIMENTAL READOUT>
IC50

>  <RECORDED VALUE>
3 µM

$$$$
